- Test system: PSD-95 protein in PC12 cells
- procedure-summary: Level of PSD-95 in PC12 cells incubated with test compound
- Assay type: cell-based
- recorded-conditions: incubation 2 or 4 days
- Procedure: Postsynaptic protein PSD-95 is a member of the membrane-associated guanylate kinase (MAGUK) family. The protein is almost exclusively located in the postsynaptic density of neurons and is involved in anchoring synaptic proteins. […] The activity of each test compound is assessed by determining the effect of each test compound on the level of PSD-95 in the cells.
experimental-endpoint: level of the PSD-95 protein in tissue culture

{"columns": ["compound", "measured"],
 "data": [
  ["CSc1nc(N)c2ncn([C@@H]3O[C@H](COP(=O)(O)OP(=O)(O)OP(=O)(O)O)[C@@H](O)[C@H]3O)c2n1", "effective"],
  ["O=c1ccn(C2OC(COP(=O)([O-])OP(=O)([O-])OP(=O)([O-])S)C(O)C2O)c(=O)[nH]1.[Na+].[Na+].[Na+] (stereo not drawn) [UTPγS trisodium salt]", "effective"],
  ["O=c1ccn([C@@H]2O[C@H](COP(=O)([O-])OP(=O)([O-])O[C@H]3O[C@H](CO)[C@@H](O)[C@H](O)[C@H]3O)[C@@H](O)[C@H]2O)c(=S)[nH]1.[Na+].[Na+]", "effective"]
]}
